- Protocol Details: Pharmacokinetics after a single oral dose in SD rats
- Type: in vivo
- Cond: Sprague-Dawley, rat, plasma, single oral dose in 0.5% methylcellulose
Binary call on AUC with cut-off 2000 ng·h/mL: strictly below means yes (1), and equality or higher means no (0).

In [3]: df
Out[3]:
                                   compound  assigned_class
0  CCn1nc2ncc(N3CC4(CN(C(=O)C5CCOCC5)C4)C3)cc2c1N(C)c1nc(-c2ccc(F)cc2)c(C#N)s1 [Compound 118]          no (0)
1  [2H]c1c(F)c(N2CCN(CC(=O)N3CC(O)C3)CC2)cc2c(N(C)c3nc(-c4ccc(F)cc4)c(C#N)s3)c(CC)nn12 [Example 103]         yes (1)
2  CN(c1nc(-c2ccc(F)cc2)c(C#N)s1)c1c(C2CC2)nn2cc(F)c(N3CC4(CN(C(=O)[C@H]5CCOC5)C4)C3)cc12 [Compound 114]         yes (1)
3  CCc1nc2c(C)cc(N3CCN(CC(=O)N4CC(O)C4)CC3)cn2c1N(C)c1nc(-c2ccc(F)cc2)c(C#N)s1 [GLPG1690]         yes (1)
4  CCc1nn2cc(F)c(N3CCN(CC(=O)N4CC[C@@H](O)C4)CC3)cc2c1N(C)c1nc(-c2ccc(F)cc2)c(C#N)s1 [Example 109]         yes (1)
5  CCc1nn2cc(C)c(N3CC4(CN(C(=O)[C@H]5CCOC5)C4)C3)cc2c1N(C)c1nc(-c2ccc(F)cc2)c(C#N)s1 [Example 97]          no (0)
6  CCc1nn2cc(F)c(N3CC4(CN(C(=O)[C@H]5CCOC5)C4)C3)cc2c1N(C)c1nc(-c2ccc(F)cc2)c(C#N)s1 [Example 102]          no (0)
7  CCn1nc2ncc(N3CC4(CN(C(=O)[C@H]5CCOC5)C4)C3)cc2c1N(C)c1nc(-c2ccc(F)cc2)c(C#N)s1 [Compound 117]          no (0)
8  CCc1nn2cc(F)c(N3CC4(CN(C(=O)C5CCN(C)CC5)C4)C3)cc2c1N(C)c1nc(-c2ccc(F)cc2)c(C#N)s1 [Example 106]         yes (1)
9  CCc1nn2cc(F)c(N3CC4(CN(C(=O)C5(O)CCOCC5)C4)C3)cc2c1N(C)c1nc(-c2ccc(F)cc2)c(C#N)s1 [Example 112]          no (0)

Where do these numbers come from? They come from patent US10711000B2.
